Recorded values, source paper PMC8745178.

Overview of recorded ΔGobs CAIII for various compounds
Biological target: CAIII (Homo sapiens)
Sequence (P07451 whole entry): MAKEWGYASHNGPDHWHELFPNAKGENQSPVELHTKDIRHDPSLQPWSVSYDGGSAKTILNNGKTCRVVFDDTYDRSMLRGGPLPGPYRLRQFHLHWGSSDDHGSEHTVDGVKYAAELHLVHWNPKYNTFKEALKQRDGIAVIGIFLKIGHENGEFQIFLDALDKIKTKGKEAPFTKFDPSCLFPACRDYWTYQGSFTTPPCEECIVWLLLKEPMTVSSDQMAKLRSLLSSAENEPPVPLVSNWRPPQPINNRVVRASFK
Assay: fluorescent thermal shift assay (FTSA), CAIII
Assay type: binding
Conditions: converted from Kd_obs, 37 °C, pH 7.0, FTSA

The cases that follow already have their ΔGobs CAIII on record.
COC(=O)c1cc(S(N)(=O)=O)c(SC2CCCCCCCCCCC2)cc1Cl :: ≥ -5.26 kcal/mol
COC(=O)c1cc(S(N)(=O)=O)c(S(=O)(=O)C2CCCCC2)cc1Br :: ≥ -5.26 kcal/mol
COC(=O)c1cc(S(N)(=O)=O)c(SCc2ccccc2)cc1Cl :: -5.81 kcal/mol
COC(=O)c1cc(S(N)(=O)=O)c(Br)cc1Br [Compound 2, Methyl 2,4-dibromo-5-sulfamoyl-benzoate] :: ≥ -5.26 kcal/mol
COC(=O)c1cc(S(N)(=O)=O)c(Cl)cc1S(=O)(=O)Cc1ccccc1 :: -9.01 kcal/mol
COC(=O)c1cc(S(N)(=O)=O)c(Cl)cc1SCc1ccccc1 :: ≥ -5.26 kcal/mol

Alright, here's another compound for you.
Req: Any idea what its ΔGobs CAIII is? The compound is `COC(=O)c1cc(S(N)(=O)=O)c(Br)cc1Sc1ccccc1`
Resp: ≥ -5.26 kcal/mol
